Items are presented alongside their recorded one-hybrid fitness for binding parS DNA.
B1: Caulobacter ParB omega fusion; a variant is named by its letters at X, in order, B8GW30 (parent)
chain: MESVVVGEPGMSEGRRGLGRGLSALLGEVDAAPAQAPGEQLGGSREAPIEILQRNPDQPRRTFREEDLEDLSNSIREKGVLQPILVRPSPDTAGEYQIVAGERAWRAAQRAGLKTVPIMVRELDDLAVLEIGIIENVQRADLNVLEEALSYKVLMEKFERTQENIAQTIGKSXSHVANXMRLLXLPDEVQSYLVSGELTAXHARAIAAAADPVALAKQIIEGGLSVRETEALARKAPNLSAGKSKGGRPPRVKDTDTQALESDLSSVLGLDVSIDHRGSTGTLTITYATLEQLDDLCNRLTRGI

Variants of: B1
Experiment: one-hybrid fitness for binding parS DNA (scaled: cognate 1, non-cognate 0); higher = stronger binding
Conditions: with parS DNA site
In all, about 81,000 sequences were measured (“one-hybrid fitness for binding parS DNA”: median about -0.17, highest 2% from about 0.51 on). The sample holds the highest values, similar sequences and a random draw of the others, so the mix is not that of the screen.

In the examples that follow, each entry is paired with its recorded one-hybrid fitness for binding parS DNA.
1) RSRD :: ≤ 0.2
2) TTLF :: ≤ 0.2
3) MLQR :: ≤ 0.2
4) RCRD :: ≤ 0.2
5) RKWY :: 0.393
6) TVMC :: ≤ 0.2
7) RHWG :: 0.844
8) RPYS :: ≤ 0.2

Record PLWY , field one-hybrid fitness for binding parS DNA: ≤ 0.2

Record INHN , field one-hybrid fitness for binding parS DNA: ≤ 0.2
